- Test system: human breast cancer MDA-MB-231 cells [人乳腺癌MDA-MB-231细胞]
- experiment_description: CCK-8 in vitro tumour cell inhibition assay, MDA-MB-231 (Example 11, Tables 2-4)
- Assay type: cell-based
- setup_conditions: 72h
assay_metric: pIC50
Scale: negative log10 of molar concentration, which is what pIC50 denotes.

>  <smiles_record>
Cn1nc(N2C(=O)COC23C=CC(=O)C=C3)nc1-c1ccccc1

>  <pIC50>
5.84

$$$$

# pIC50 lookup, item O=C1C=CC2(C=C1)OCC(=O)N2c1nc(-c2ccccc2)nn1-c1ccccc1
6.47

Values were extracted from patent CN102850337A.
